Please go through the items and note down their Degradation rate (%) of ERα in T-47D cells.
tgt: ERα (Homo sapiens)
Sequence (P03372 whole entry): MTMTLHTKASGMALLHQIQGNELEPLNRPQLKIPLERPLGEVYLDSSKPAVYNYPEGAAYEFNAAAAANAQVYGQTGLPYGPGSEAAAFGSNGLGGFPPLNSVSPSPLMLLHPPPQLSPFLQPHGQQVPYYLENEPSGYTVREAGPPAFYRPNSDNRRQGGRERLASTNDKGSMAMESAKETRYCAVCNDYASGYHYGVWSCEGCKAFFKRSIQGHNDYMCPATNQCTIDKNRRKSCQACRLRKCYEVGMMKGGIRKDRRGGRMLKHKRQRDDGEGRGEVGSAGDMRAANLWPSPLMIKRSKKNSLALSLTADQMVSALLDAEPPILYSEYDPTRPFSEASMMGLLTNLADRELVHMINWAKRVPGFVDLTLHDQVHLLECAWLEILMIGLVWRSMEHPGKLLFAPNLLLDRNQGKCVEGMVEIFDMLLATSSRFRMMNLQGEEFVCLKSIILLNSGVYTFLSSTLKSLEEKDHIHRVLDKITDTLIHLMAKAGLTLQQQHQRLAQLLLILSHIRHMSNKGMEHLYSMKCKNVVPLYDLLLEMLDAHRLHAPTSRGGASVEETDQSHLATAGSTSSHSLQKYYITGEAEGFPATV
protocol_notes: Degradation of ERα in T-47D cells (immunoblotting, 4 h)
Type: cell-based
Set-up: host or cells: T-47D
run_parameters: 1nM compound
Answers are plain numbers, in %.

O=C1CCC(N2Cc3c(ccc4c3OCC43CCN(C(=O)CN4CCC5(CC4)CCN(c4ccc([C@@H]6c7ccc(O)cc7CC[C@@H]6c6ccccc6)cc4)C5)CC3)C2=O)C(=O)N1 (some centres unmarked)	53
O=C1CCC(N2Cc3c(ccc4c3OCC43CCN(C(=O)C4CCN(CC5(F)CCN(c6ccc([C@@H]7c8ccc(O)cc8CC[C@@H]7c7ccccc7)cc6)CC5)CC4)CC3)C2=O)C(=O)N1 (some centres unmarked) [E1]	57
O=C1CCC(N2Cc3c(ccc4c3OCC43CCN(C(=O)CN4CCC(Oc5ccc([C@@H]6c7ccc(O)cc7CC[C@@H]6c6ccccc6)cc5)CC4)CC3)C2=O)C(=O)N1 (some centres unmarked)	41
C[C@@H]1Cc2c([nH]c3ccccc23)[C@@H](c2c(F)cc(N3CCC4(CCN(C(=O)CN5CCC6(CC5)COc5c6ccc6c5CN(C5CCC(=O)NC5=O)C6=O)C4)CC3)cc2F)N1CC(F)F (some centres unmarked)	51

--- query ---
GET /values?readout=Degradation rate (%) of ERα in T-47D cells&item= O=C1CCC(N2Cc3c(ccc4c3OCC43CCN(CC(=O)N4CCC(C#Cc5ccc([C@@H]6c7ccc(O)cc7CC[C@@H]6c6ccccc6)cc5)CC4)CC3)C2=O)C(=O)N1 (some centres unmarked) 40

src = patent EP4656642A1
